// data source = patent US20100298213A1

TARGET OF ASSAY: human insulin receptor isoform with exon 11 (human) (UniProt P06213)
MEASUREMENT PROTOCOL: receptor binding, standard methods (FIG. 2)
Ends that are not written are not given here.
QUANTITY: relative affinity

BINDER	REPORTED MEASUREMENT
Ac-SLEEEWAQIECEVWGRGCPSEGFYNAIELLS (cysteine pairing not given here) [S726]	121

[P] Ac-SLEEEWAQIQCEVWGRGCPSESFYGWFERQLG (cysteine pairing not given here) [S733]
[Q] SLEEEWAQVECEVYERGCPSESFYDWFERQL [S696]
Looking at P and Q , which one comes out lower in relative affinity terms? Choose, then provide that item's label. Q

[A] SLEEEWAQIECEVYGRGCPSVRGFQGGTVWPGYEWLRNAAKK [S626]
[B] Ac-SLEEEWAQIQCEVWGRGCPSESFYDWFERQL (cysteine pairing not given here) [S636]
[C] SLEEEWAQIEAEVWGRGAPSESFYDWFERQLG [S574]
Ascending by relative affinity, please: list the binders accordingly. Ranked list of labels, please, in the requested order. C, A, B
(C: 8.2, A: 78, B: 117)
